Origin of values: the METLIN SMRT retention time set (Domingo-Almenara et al. 2019)

# Method description: gradient 5% acetonitrile 3 min, to 50% in 2 min, to 85% in 15 min, held 3 min, 100 µL/min
# Settings: column: Zorbax Extend-C18 2.1 x 50 mm; eluents: water / acetonitrile, 0.1% formic acid
Result type: RP-LC retention time (s)

>>> readout_number("O=C(Cc1cccs1)Nc1ccc2c(c1)CCC(=O)N2")
620
>>> readout_number("CC(=O)c1sc(Nc2nc3cc4c(cc3s2)OCO4)nc1C")
778
>>> readout_number("CCOC(=O)c1c(C)[nH]c(CCC(=O)NCc2ccc(SC)cc2)c1C")
714
>>> readout_number("CCc1ccc(NC(=O)Cn2cnc3onc(C)c3c2=O)cc1")
843
>>> readout_number("O=C(NC1CCCCCC1)C1CCN(C(=O)c2ncn3c2COC(c2ccc(F)cc2)C3)CC1 (stereo not given)")
846
>>> readout_number("CCc1nc2ccccc2c(=O)n1Cc1noc(/C=C/c2ccc(OC)cc2)n1")
1000
>>> readout_number("CCc1ccccc1NC(=O)N1CCC(OC2CCN(S(C)(=O)=O)CC2)CC1")
770
>>> readout_number("CCOC(=O)CNC(=O)N1CCCC1c1cccc(F)c1 (stereo not given)")
745
>>> readout_number("CN1C(C(=O)Nc2ccccn2)=C(O)c2sc(Cl)cc2S1(=O)=O")
793
>>> readout_number("CC1CCN(C(=O)C(=O)NCc2n[nH]c(=O)c3ccccc23)CC1")
639

###

# Method description: gradient 5% acetonitrile 3 min, to 50% in 2 min, to 85% in 15 min, held 3 min, 100 µL/min
# Settings: column: Zorbax Extend-C18 2.1 x 50 mm; eluents: water / acetonitrile, 0.1% formic acid
// classify: if (RP-LC retention time < 700 s) Y else N

>>> class_name("Cc1cc(C)nc(Nc2nc(C(=O)O)cs2)n1")
"Y"
>>> class_name("CC(C)N1C(=O)C(C)(C(=O)Nc2ccc(F)c(Cl)c2)Oc2cccnc21 (stereo not given)")
"N"
>>> class_name("CCn1ccc(C(=O)N2CCCC2(CO)Cc2ccccc2)n1 (stereo not given)")
"N"

###

# Method description: gradient 5% acetonitrile 3 min, to 50% in 2 min, to 85% in 15 min, held 3 min, 100 µL/min
# Settings: column: Zorbax Extend-C18 2.1 x 50 mm; eluents: water / acetonitrile, 0.1% formic acid
Result type: RP-LC retention time (s)

>>> readout_number("COc1ccc(C(=O)N2CCC3(CC2)NC(=O)c2ccc(Cl)cc2N3)cc1")
735
>>> readout_number("CCOc1nc2ccccc2nc1N1CCCC(C(=O)N2CCSCC2)C1 (stereo not drawn)")
1150
>>> readout_number("COc1ccc(N2CC(c3noc(-c4ccccc4Cl)n3)CC2=O)cc1OC (stereo not drawn)")
880
>>> readout_number("CC(C)n1nnc2ccc(-c3noc(CNC(=O)c4ccccc4)n3)cc21")
825
>>> readout_number("COCCn1c(C)c(C)c(S(=O)(=O)c2ccc(F)cc2)c1NC(=O)C1CCCO1 (stereo not drawn)")
839
>>> readout_number("CCN1CCN(C(=O)C2CCN(S(=O)(=O)c3cc(C(=O)N4CCCC4)n(C)c3)CC2)CC1")
567
>>> readout_number("O=C(C1CCCN(c2cnc3nccnc3c2)C1)N1CCC(N2CCCCC2)CC1 (stereo not drawn)")
557
>>> readout_number("Cc1cc(=O)n(CC(=O)Nc2ccccc2F)c(N2CCCCC2)n1")
649
>>> readout_number("COc1ccc(-c2nc(N3CCN(c4ccccn4)CC3)c3ccccc3n2)cc1")
580
>>> readout_number("CC(=O)Nc1ccc2nc(NC(=O)c3cccc(C(F)(F)F)c3)sc2c1")
784
>>> readout_number("CCCNC(=O)CSc1ncccc1C(=O)O")
599
>>> readout_number("CO[C@@H](C(=O)N1Cc2[nH]nc(NC(=O)c3ccc(N4CCN(C)CC4)cc3)c2C1)c1ccccc1")
614
>>> readout_number("CC(C)c1nncn1C1CCN(C(=O)c2cc(-c3cccs3)[nH]n2)C1 (stereo not drawn)")
617
>>> readout_number("O=S(=O)(c1ccc2c(c1)CCC2)N1CCCn2nc(-c3ccncc3)cc2C1")
687
>>> readout_number("Cc1ccc(-n2ccc(=O)c(-c3nc(-c4ccc(F)c(Br)c4)no3)n2)cc1")
1080
>>> readout_number("CCc1nc(-c2csc(S(=O)(=O)N3CCC(C(=O)N4CCc5ccccc5C4)CC3)c2)no1")
1020
>>> readout_number("CCn1ncn2cc(S(=O)(=O)Nc3ccc(C)cc3)cc2c1=O")
882
>>> readout_number("Cc1ccc(NC(=O)N2CCCC2c2nc(-c3ccc(F)cc3F)no2)cc1C (stereo not drawn)")
1050
>>> readout_number("CCCn1c(-c2cccc(C(=O)NCc3ccc(SC)cc3)c2)nc2cccnc21")
874
>>> readout_number("CCn1ccc(C(=O)N(CC2CCCO2)c2nc3c(C(C)C)cccc3s2)n1 (stereo not drawn)")
1370
>>> readout_number("CC(C)n1cnc2cc(CNC(=O)c3c(F)cccc3F)ccc21")
612
>>> readout_number("Cc1nc(-c2ccc(N3CCN(C(=O)COc4ccc(F)cc4)CC3)nc2)sc1C")
880
>>> readout_number("CCCOc1ccc(CNC(=O)C2CCc3nc(N4CCOCC4)ncc3C2)cc1 (stereo not drawn)")
792
>>> readout_number("Cc1cc(C(=O)N2CCCn3ccnc3C2c2cnn(C)c2)c(C)o1 (stereo not drawn)")
587
>>> readout_number("CCCn1cc(C(=O)Nc2ccc3c(c2)OCCO3)c(=O)c2ccc(C)nc21")
1070
>>> readout_number("O=C(Nc1ccc(Cl)c(Cl)c1)N1CCN(Cc2ccsc2)CC1")
598
>>> readout_number("COc1ccc(-c2[nH]ncc2CN2CC(F)(F)C[C@H]2CN2CCOCC2)cc1")
590
>>> readout_number("COCC1(O)CCOC2(CCN(Cc3cccc(Cl)c3F)CC2)C1 (stereo not drawn)")
560
>>> readout_number("Cc1nc(-c2ccccc2)sc1C(=O)NCCNC(=O)c1ccc(NC(=O)C2CC2)cc1")
705
>>> readout_number("Cc1ccn(-c2ccc(N3CCN(C(=O)c4c(F)cccc4Cl)CC3)nn2)n1")
752
>>> readout_number("O=C(c1ccc(CS(=O)(=O)c2cccc(C(F)(F)F)c2)o1)N1CCN(c2ccccn2)CC1")
645
>>> readout_number("Cc1sc(C)c(S(=O)(=O)Nc2ccccc2Cl)c1-c1cc(C(F)(F)F)on1")
1140
>>> readout_number("Cc1ccc(N(Cc2ccccc2)S(=O)(=O)c2ccc3nnc(C)n3c2)cc1")
884
>>> readout_number("O=C(NCc1ccncc1)C1CCCN(c2nc3ccsc3c(=O)n2Cc2ccc(F)cc2)C1 (stereo not drawn)")
630
>>> readout_number("COc1ccc(C)cc1NC(=O)N1C[C@@H]2C[C@H](NC(=O)c3cccs3)[C@H]1C2")
827
>>> readout_number("CC(C)NC(=O)C1CCN(c2cncnc2N(C)C)CC1")
580
>>> readout_number("COCCCNC(=O)C1CCN(c2ncnc3c2oc2ccccc23)CC1")
613
>>> readout_number("CCc1ccc(CNC(=O)Cc2nnc(-c3ccc4ncccc4c3)o2)cc1")
758

###

Consider the following compounds and their measured RP-LC retention time readings.
# Method description: gradient 5% acetonitrile 3 min, to 50% in 2 min, to 85% in 15 min, held 3 min, 100 µL/min
# Settings: column: Zorbax Extend-C18 2.1 x 50 mm; eluents: water / acetonitrile, 0.1% formic acid
Result type: RP-LC retention time (s)

>>> readout_number("CCN1C(=O)COc2ccc(-c3csc(NC(=O)c4ccc(C)cc4)n3)cc21")
1040
>>> readout_number("O=S(=O)(NCc1cccnc1)c1ccc(Cl)cc1")
566
>>> readout_number("O=C(c1nccc2ccccc12)N1CCC(OCC2CC2)C1 (stereo not given)")
722
>>> readout_number("CCCN(CCC)C(=O)C1CCCN(c2ncnc3c2nc2n3CCCCC2)C1 (stereo not given)")
836
>>> readout_number("CCC(=O)Nc1ccc(C2(C(=O)NCC(C)C)CCCCC2)cc1")
859

###

# Method description: gradient 5% acetonitrile 3 min, to 50% in 2 min, to 85% in 15 min, held 3 min, 100 µL/min
# Settings: column: Zorbax Extend-C18 2.1 x 50 mm; eluents: water / acetonitrile, 0.1% formic acid
Result type: RP-LC retention time

>>> result("O=C(NCC1(c2ccccc2)CCOCC1)c1cccc(C(F)(F)F)c1")
"852 s"
>>> result("CCOCC(=O)Nc1ccc2c(c1)Sc1ncccc1C(=O)N2C(C)C")
"764 s"
>>> result("CCS(=O)(=O)N1CCCc2cc(C(=O)N3CCOCC3)ccc21")
"679 s"
>>> result("Cc1cc(C)nc(Nc2nc(C(=O)N3CCN(C(=O)c4ccco4)CC3)cs2)n1")
"665 s"
>>> result("c1cc(-c2noc(-c3cccnc3)n2)cc(-c2ccn[nH]2)c1")
"777 s"
>>> result("CCCn1ncc(N2CCC(C(=O)Nc3ccc(OC)cc3OC)CC2)cc1=O")
"723 s"
>>> result("CC(=O)c1ccc2c3c(cccc13)C(=O)N(c1ccccc1)C2=O")
"811 s"
>>> result("CCc1nc2cc(-c3noc(-c4ccccc4OC)n3)ccc2o1")
"1080 s"
>>> result("Cc1ccc(NC(=O)Cn2c(=O)n(-c3ccc(F)cc3)c(=O)c3c2cc(C)n3C)c(Cl)c1")
"946 s"
>>> result("COc1cccc(-c2n[nH]c3c2C(c2ccc(OC)cc2OC)NC3=O)c1 (stereo not given)")
"753 s"
